# Tested on: A498
# Test: NCI tumour cell line growth inhibition, 48 h
Active and inactive are the calls of the source. Cut-off read from the data, not from the text of the source: active = GI50 up to about 1.1 µM and inactive = higher.
Give measured GI50 for each item. Keep answers brief.

Input `CCOC(=O)/C(C#N)=C/N(CC)/N=C/c1ccccc1` . Output GI50: > 100 µM (inactive)

Reported GI50 of `NC(=S)NNC(=O)/C(=C/c1ccc(/C=C(\NC(=O)c2ccccc2)C(=O)NNC(N)=S)cc1)NC(=O)c1ccccc1` : > 100 µM (inactive)

// GI50 lookup, compound = `C=C1c2nc3ccccc3n2C=C(c2ccccc2)N1c1ccc(C)cc1` , result: 52.7 µM (inactive)

For `CC(=O)[C@@H](C)C(=O)N1C(=O)OC[C@@]12[C@@H]1CC[C@@H](C1)C2(C)C` the compound record lists GI50 as > 100 µM (inactive)

For record `CN(/N=C\c1ccc2ccccc2c1)C1=NCCCN1` the listed GI50 is 13.6 µM (inactive)

Kindly note the recorded GI50 for `CCCCCCCCCCNC(=S)OCCCC` , which is 25.6 µM (inactive)

get_value(item= `Nc1nonc1-c1noc(-c2nonc2N)[n+]1[O-]` , readout=GI50) returns > 100 µM (inactive)

Entry `Cc1cc(=O)oc2c(CN3CCCCC3)c(O)ccc12` ; GI50 = > 100 µM (inactive)

For record CN(C)c1ncnc2c1ncn2C1C=CC(COS(N)(=O)=O)C1 (stereo unspecified) the listed GI50 is > 100 µM (inactive)

GI50 recorded for this compound, `CC(C)C(=O)/C=C/c1c(Cl)cccc1Cl` , is 21.2 µM (inactive)

In plain terms, `O=[N+]([O-])/C(C(Cl)=C(Cl)Cl)=C(\Nc1cccc2ccccc12)Sc1ccccc1` has a documented GI50 of 11 µM (inactive)
